Let's look at some compounds and their measured Ki.
- system.under.test: DAT (Rattus norvegicus, UniProt P23977)
- Construct: from tissue; host or cells: rat brain
- Sequence (P23977 whole entry): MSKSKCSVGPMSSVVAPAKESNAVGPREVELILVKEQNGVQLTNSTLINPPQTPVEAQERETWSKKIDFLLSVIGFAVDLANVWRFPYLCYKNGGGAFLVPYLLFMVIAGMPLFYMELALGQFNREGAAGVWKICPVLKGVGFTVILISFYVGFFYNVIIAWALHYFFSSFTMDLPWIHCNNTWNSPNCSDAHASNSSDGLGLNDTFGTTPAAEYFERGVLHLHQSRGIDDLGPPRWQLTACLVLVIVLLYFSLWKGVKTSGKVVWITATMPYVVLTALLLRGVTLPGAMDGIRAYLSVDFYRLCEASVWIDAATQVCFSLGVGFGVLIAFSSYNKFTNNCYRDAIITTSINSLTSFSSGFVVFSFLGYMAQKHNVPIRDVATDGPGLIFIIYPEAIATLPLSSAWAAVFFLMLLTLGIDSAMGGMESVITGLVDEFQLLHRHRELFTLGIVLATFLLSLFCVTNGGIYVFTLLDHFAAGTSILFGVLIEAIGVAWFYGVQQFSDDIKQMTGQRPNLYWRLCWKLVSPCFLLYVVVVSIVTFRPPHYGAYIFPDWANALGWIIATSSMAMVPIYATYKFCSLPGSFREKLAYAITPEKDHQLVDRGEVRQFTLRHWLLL
- method.summary: DAT uptake inhibition, [3H]DA, rat brain
- Format: biochemical
- condition.description: number in parentheses within cell
Only the number, expressed in nM, is required.

# smiles.entry, measured.value
measured = [
    ("CN(C)c1ccc(CN[C@@H]2CO[C@H](C(c3ccc(F)cc3)c3ccc(F)cc3)C[C@H]2O)cc1", 41.3),
    ("O[C@@H]1C[C@@H](C(c2ccccc2)c2ccccc2)OC[C@H]1NCc1ccc2cc[nH]c2c1", 64),
    ("COc1ccc(CN[C@@H]2CO[C@H](C(c3ccc(F)cc3)c3ccc(F)cc3)C[C@H]2O)cc1O", 7.94),
    ("COc1ccc(CN[C@@H]2CO[C@H](C(c3ccccc3)c3ccccc3)C[C@H]2O)cc1O", 58.6),
]

Consider the record given below.
Briefly, Ki measured for `COc1ccc(CN[C@@H]2CO[C@H](C(c3ccc(F)cc3)c3ccc(F)cc3)C[C@H]2O)cn1` : 20.1

* * *

- system.under.test: DAT (Rattus norvegicus, UniProt P23977)
- Construct: from tissue; host or cells: rat brain
- method.summary: DAT uptake inhibition, [3H]DA, rat brain
- Format: biochemical
- condition.description: number in parentheses within cell
So basically, if Ki comes in under 30 nM it's YES, and if it's 30 nM or more it's NO.

As a guide, the following entries are already answered.
# compound, system.under.test, group
data = [
    ("Cn1c(=O)oc2cc(CN[C@@H]3CO[C@H](C(c4ccc(F)cc4)c4ccc(F)cc4)C[C@H]3O)ccc21 [6f, D-525]", "DAT (Rattus norvegicus, UniProt P23977)", "YES"),
    ("Oc1cc(O)cc(CN[C@@H]2CO[C@H](C(c3ccccc3)c3ccccc3)C[C@H]2O)c1 [4f, D-542]", "DAT (Rattus norvegicus, UniProt P23977)", "NO"),
    ("c1ccc(C(c2ccccc2)[C@@H]2CC[C@H](NCc3ccc4occc4c3)CO2)cc1 [2a, D-484]", "DAT (Rattus norvegicus, UniProt P23977)", "NO"),
    ("O[C@@H]1C[C@@H](C(c2ccc(F)cc2)c2ccc(F)cc2)OC[C@H]1NCc1ccc2c(c1)OCO2 [6b, D-506]", "DAT (Rattus norvegicus, UniProt P23977)", "NO"),
    ("COc1cc(CN[C@@H]2CO[C@H](C(c3ccc(F)cc3)c3ccc(F)cc3)C[C@H]2O)ccc1O [6h, D-527]", "DAT (Rattus norvegicus, UniProt P23977)", "YES"),
]

Exercise: Strictly below 30 nM: is that where Ki of O[C@@H]1C[C@@H](C(c2ccccc2)c2ccccc2)OC[C@H]1NCc1ccc2occc2c1 [4a, D-485] sits?
Solution: NO

Exercise: Please state whether Ki is below 30 nM for c1ccc(C(c2ccccc2)[C@@H]2CC[C@H](NCc3ccc4cc[nH]c4c3)CO2)cc1 [2b, D-543]
Solution: NO

Exercise: Please determine if COc1ccc(CN[C@@H]2CO[C@H](C(c3ccc(F)cc3)c3ccc(F)cc3)C[C@H]2O)cc1 [6a, D-473] is below 30 nM in terms of Ki.
Solution: YES

* * *

Where a name gives a salt, the structure may show the parent alone.
quantity: melting point

Before answering, review these 5 worked examples.
# compound, melting point
measured = [
    ("O[C@@H]1C[C@@H](C(c2ccccc2)c2ccccc2)OC[C@H]1NCc1ccc2cc[nH]c2c1 (as salt: oxalate) [4b, D-544]", "152 to 154 °C"),
    ("c1ccc(C(c2ccccc2)[C@@H]2CC[C@H](NCc3ccc4cc[nH]c4c3)CO2)cc1 (as salt: oxalate) [2b, D-543]", "194 to 196 °C"),
    ("COc1cc(O)cc(CN[C@@H]2CO[C@H](C(c3ccccc3)c3ccccc3)C[C@H]2O)c1 (as salt: hydrochloride) [4e, D-503]", "160 to 162 °C"),
    ("c1ccc(C(c2ccccc2)[C@@H]2CC[C@H](NCc3ccc4occc4c3)CO2)cc1 (as salt: hydrochloride) [2a, D-484]", "140 to 142 °C"),
    ("COc1cc(CN[C@@H]2CO[C@H](C(c3ccccc3)c3ccccc3)C[C@H]2O)ccc1O (as salt: hydrochloride) [4c, D-501]", "203 to 205 °C"),
]

compound COc1ccc(CN[C@@H]2CO[C@H](C(c3ccccc3)c3ccccc3)C[C@H]2O)cc1O (as salt: hydrochloride) [4d, D-502] , melting point observed: 168 to 170 °C

Sample Oc1cc(O)cc(CN[C@@H]2CO[C@H](C(c3ccccc3)c3ccccc3)C[C@H]2O)c1 (as salt: hydrochloride) [4f, D-542] ; melting point observed: 168 to 170 °C

Per the record, O[C@@H]1C[C@@H](C(c2ccccc2)c2ccccc2)OC[C@H]1NCc1ccc2occc2c1 (as salt: hydrochloride) [4a, D-485] has melting point of 204 to 206 °C

Notebook: COc1cccc(CN[C@@H]2CO[C@H](C(c3ccccc3)c3ccccc3)C[C@H]2O)c1 (as salt: hydrochloride) [4g, D-523] , melting point read as 197 to 199 °C
